Study system: pooled human IgG (human IgG1, 2, 3 and 4)
proteins and their reported Enzyme Activity Endpoint Assay: IgG
Measured metric: Enzyme Activity Endpoint Assay: IgG (ng/µL)

PRT-614 (protein) MQITSVWTKGVKPLTPEQFRYNNEDVIHAPYLAHQGWYDITKAFDGKDNLLCGAATAGNMLHWWFDQNKTEIEAYLSKHPEKQKIIFNNQELFDLRAAIDTKDSQTNSQLFNYFRDKAFPNLSARQLGVMPDLVLDMFINGYYLNVFKTQSTDVNRPYQDKDKRGGIFDDVFTRGDQTTLLTARHDLKNGGLNDISTIIKQELTEGRALALSHTYANVSISHVINLWGADFNAEGNLEAIYVTDSDANASIGMKKYKVGINAHGHVAISAKKIEGENIGAQVLGLFTLSSGKDIWQKLSLEHHHHHH    0
PRT-263 (protein) MVTSVWTKGVTPPTNFTYGEDVLHAPYVANQGWYDITKLFNGKDNLLCGAATAGNMLHWWFDQNKEQIENYLKKHPEKQKINFNGEQLFDVKEAIDTKDSQLDSKLFEYFLEKAFPNLSTKHLGVFPDHVIDMFINGYRLSLLNHGPTPVKRGSKDKRGGIFDAVFTRGVQSKLLTNRHDFKEKTLKEISDLIKQELTEGKALGISHTYANGRINHVINLWGADFDAEGNLEAIAVTDSDTNASIGMKKYFVGVNSSGKVAISAKEIEEDNIGAQVLGLFTLSTGQDIWNQTN    986
PRT-514 (protein) MITSVWTKGVTPPTDFIKGEDVFHAPYKAGQGWYDITKAFDGGDDLLCGAATAGNMLHWWFDQNKEEIEAYLKKHPEKQKIMFGDQELLDVRKVINTKDSQTNSALFNYFKDKAFPNLSARRLGVMPDLVLDMFINGYYLNVYKTQTTDVNRQEQTKDRRGGIFDAVFGRGDQTKLLTERHDFKEKTLNEISQLIKQELTEGKALGLSHTYANVRINHVINLWGADFDAEGNLEAIYVTDSDSNASIGMKKYFVGVNSAGKVAISAKEIKEDNIGAQVLGLFTLSTGQKIWNKTNLEHHHHHH    0
PRT-253 (protein) MVTSVWTKGVTPPTNFTYGEDVLHAPYVANQGWYDITKTFNGKDDLLCGAATAGNMLHWWFDQNKEQIENYLKKHPEKQKINFNGEQMFDVKEAIDTKDSQLDSKLFEYFLEKAFPNLSTKHLGVFPDHVIDMFINGYRLSLLNHGPTPVKRGSKDPRGGIFDAVFTRGDQSKLLTNRHDFKEKTLKEISDLIKQELTEGKALGISHTYANVRINHVINLWGADFDAEGNLEAIYVTDSDSNKSIGMKKYFVGVNSDGKVAISAKEIEEDNIGAQVLGLFTLSTGQDIWNQTN    0
PRT-471 (protein) MVTSVWTKGVTPPTDFIYGEDVLHAPYKAGQGWYDITKAFDGGDDLLCGAATAGNMLHWWFDQNKEQIENYLKKHPEKQKINFNGEQMFDVKEAIDTKDSQTNSELFNYFKEKAFPYLSTKHLGVFPDHVIDMFINGYRLSLTNHGPTPVKRGSKDPRGGIFDAVFTRGDQSKLLTNRHDFKEKTLKEISDLIKQELTEGKALGISHTYANVRINHVINLWGADFDAEGNLEAIYVTDSDSNASIGMKKYFVGVNSNGKVAISAKEIEEDNIGAQVLGLFTLSTGQDIWNQTNLEHHHHHH    0
PRT-526 (protein) MANQEIRYSEETPKTITSVWTKGVTPPTDFIKNEDVLHAPYIANQGWYDITKTFNGKDDLLCGAATAGNMLHWWFDQNKEEIERYLKKHPEKQKINFNGEQMFDVKEAIDTKDSQTDSALFEYFKDKAFPNLSTKHLGVMPDHVLDMFINGYYLSLGKHGPTPVKRGTKDPRGGIFDAVFTRGDQSKLLTSRHDFKEKTLKEISDLIKQELTEGKALALSHTYANVRINHVINLWGADFDSEGNLEAIYVTDSDSNASIGMKKYYVGVNSAGKVAISAKEIEGDNIGAQVLGLFTLSTGQDIWEQTNLEHHHHHH    110
PRT-554 (protein) MANQEIRYSEETPKTITSVWTKGVTPPTDFIKNEDVFHAPYVANQGWYDITKTFNGKDDLLCGAATAGNMLHWWFDQNKEEIENYLKKHPEKQKINFNGEQMFDVKEAIDTKDSQTDSALFNYFKDKAFPYLSTKHLGVFPDHVIDMFINGYRLSLTNHGPTPVKDGTKDPRGGIFDAVFTRGDQTKLLTARHDFKEKTLNEISDLIKQELTEGKALGLSHTYANVRINHVINLWGADFDSEGNLEAIYVTDSDSNASIGMKKYYVGVNAAGKVAISAKEIEDDNIGAQVLGLFTLSTGQDIWEQTNLEHHHHHH    36
PRT-586 (protein) MANQEIRYSEETPKTITSVWTKGVTPPTDFIYNEDVLHAPYIANQGWYDITKTFNGKDDLLCGAATAGNMLHWWFDQNKEQIERYLKKHPEKQKINFNGEQMFDVKEAIDTKDSQTDSKLFEYFKDKAFPYLSTKHLGVFPDHVIDMFINGYRLSLTNHGPTPVKRGTKDPRGGIFDAVFTRGDQSKLLTSRHDFKEKTLNEISDLIKQELTEGKALGLSHTYANVRINHVINLWGADFNAEGNLEAIYVTDSDSNASIGMKKYYVGVNSAGKVAISAKEIEGDNIGAQVLGLFTLSTGQDIWEQTNLEHHHHHH    77
